- test: viability gain of MRP-1-high H69AR cells under doxorubicin, pilot screen, MRP-1 activator project, CellTiter-Glo, duplicate (AID 807);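 also: compound pretreatment 18-22 h then 72 h combined with doxorubicin; 0% = doxorubicin alone and 100% = vehicle without doxorubicin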
- recordedConditions: H69AR viability with doxorubicin, CellTiter-Glo luminescence; at 10 µM; stronger effect = higher value
quantityMeasured: viability increase (%)

molecule=COc1ccc(OCC(=O)Nc2cc(OC)cc(OC)c2)cc1 obsvalue=-3.71
molecule="CCCCC(CC)CNC(=O)CCS(=O)(=O)c1cccc2nonc12 (stereo not drawn)" obsvalue=-0.88
molecule=CNC(=O)c1ccsc1NC(=O)c1ccc(Cl)s1 obsvalue=-3.2

* * *

- test: growth inhibitors of H69AR lung tumor, primary screen, human, duplicate replicates (AID 580);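 also: 100% = mean luminescence of untreated wells and 0% = no signal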
- recordedConditions: H69AR lung tumor cells viability, ATP luminescence, 72 h; at 10 µM; stronger effect = lower value
quantityMeasured: viability (%)

compound="CCCn1c(O)c(CN2CCCC(C)C2)c(C)c(C#N)c1=O (centres undefined)" readoutunit=% obsvalue=107
compound="COc1ccc(C2=NOC(C(=O)NC3CCCCC3)C2)cc1OC (centres undefined)" readoutunit=% obsvalue=95.9
compound="CCC1CCCN1Cn1cnc2c([nH]c3ccc(OC)cc32)c1=O (centres undefined)" readoutunit=% obsvalue=91.3
compound=CCOC(=O)N1CCN(CC(=O)c2c(C)[nH]c3ccccc23)CC1 readoutunit=% obsvalue=75.2

* * *

- test: reversal of MRP1-mediated doxorubicin resistance, pilot screen, H69AR cells, doxorubicin co-treatment (AID 601)
- recordedConditions: H69AR cells + 2 uM doxorubicin, CellTiter-Glo, 72 h; measured here: viability with 2 uM doxorubicin; at 10 µM; stronger effect = lower value
Measured viability of individual entries
quantityMeasured: viability (%)

molecule="CN(C)S(=O)(=O)c1ccc2c(c1)C(CC(=O)O)OC2=O (stereo unspecified)" obsvalue=96.9
molecule=CCOC(=O)c1c(C)[nH]c(C=Nc2ccccc2)c1O obsvalue=90.8
molecule="COC(=O)C1=C(C)OC(N)=C(C#N)C1c1c(C)nn(-c2ccccc2)c1Cl (stereo unspecified)" obsvalue=86.7
molecule=OCc1cn(-c2ccccc2)nc1-c1ccc2c(c1)OCCO2 obsvalue=88.3
molecule="CC(=O)OCC1OC(c2ccccc2)C(OC(C)=O)C(OC(C)=O)C1OC(C)=O (stereo unspecified)" obsvalue=101
molecule=CCS(=O)(=O)N1CCC(C(=O)NC2CCCCCCC2)CC1 obsvalue=89.6
molecule=Cc1ccc2oc(-c3ccccc3C(=O)O)cc(=O)c2c1 obsvalue=103
molecule=CC(=O)[C@@]1(O)CC[C@H]2[C@@H]3CCC4=CC(=O)CC[C@]4(C)[C@H]3[C@@H](O)C[C@@]21C obsvalue=99.2
molecule=CCCCS(=O)(=O)NC1=NCN(C2CCN(Cc3ccccc3)CC2)CN1 obsvalue=101
molecule=Cc1noc(C)c1C(=O)Nc1ccc(Cl)cc1C(F)(F)F obsvalue=94
molecule=CCOc1ccc(C(=O)N2CCN(C(=O)c3ccco3)CC2)cc1OCC obsvalue=94

* * *

- testedSystem: Receptor tyrosine-protein kinase erbB-2 (Homo sapiens)
- test: reducers of endogenous Her2 protein level, primary screen, SKBR3 breast tumor cells, AlphaScreen, ATP viability (AID 461);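 also: lower value means less Her2 protein in the cells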
- recordedConditions: 18-24 h, at 10 µM, stronger effect = lower value
Measured Her2 level of individual entries
quantityMeasured: Her2 level (%)

molecule=Cc1cc(=O)oc2cc(Oc3ncccn3)ccc12 obsvalue=106
molecule="CCSc1nnc(NC(=O)C2CCCN(S(=O)(=O)c3cnc[nH]3)C2)s1 (configuration not stated)" obsvalue=97.5
molecule=Nc1ccc(S(=O)(=O)NC(=O)c2ccccc2)cc1 obsvalue=100
molecule=CCCCN(CCCC)CCCOC(=O)c1ccc(N)cc1 obsvalue=106
molecule=Cc1ccc(-n2c(=O)c(C#N)cc3c(=O)n4ccccc4nc32)cc1 obsvalue=84.5
molecule=COc1ccccc1C(=O)N1CCN=C1SCc1cccnc1 obsvalue=103
molecule=Cn1cccc1-c1cc(C(=O)O)[nH]n1 obsvalue=110
molecule=CCOC(=O)C1CCN(c2c(N3CCCCCC3)c(=O)c2=O)CC1 obsvalue=100
molecule=COc1ccc(C(=O)NCc2nnc(SCC(=O)Nc3cc(C)cc(C)c3)o2)cc1OC obsvalue=102
molecule=COc1ccc(OC)c(S(=O)(=O)NCCC2=CCCCC2)c1 obsvalue=87.5
molecule="COc1ccccc1C1C(C(C)=O)=C(O)C(=O)N1CCc1ccccc1 (configuration not stated)" obsvalue=102
molecule="Cc1cccc(CCNC(=O)C2CCCN(S(=O)(=O)c3cnc[nH]3)C2)c1 (configuration not stated)" obsvalue=106
molecule=COc1cc(NC(=O)c2cc(CC(C)C)on2)c(OC)cc1Cl obsvalue=102
molecule=CCc1ccccc1NC(=O)CCc1nc(-c2ccc(C)cc2)no1 obsvalue=71.5
molecule=c1ccc2ncc(-n3cnnn3)cc2c1 obsvalue=105
molecule=Cc1ccc(C)c2[nH]c(=O)c(CN(CCN3CCCC3)C(=O)Nc3cccc(Cl)c3)cc12 obsvalue=84
molecule=O=C(Nc1ccc(N2CCN(Cc3ccccc3Cl)CC2)cc1)c1cccnc1 obsvalue=108
molecule=CCOC(=O)C1CCN(C(=O)C2(NC(=O)Nc3ccccc3Cl)CCCCC2)CC1 obsvalue=98
molecule="Cc1ccc2cc(C(c3nnnn3CC3CCCO3)N3CCCC4(CCCCC4)C3)c(=O)[nH]c2c1 (configuration not stated)" obsvalue=92.5
molecule="Oc1ccccc1C1=Nc2nc3ccccc3n2C(c2ccccc2)C1 (configuration not stated)" obsvalue=86.5
molecule="CC(C)N1C(=O)C2C(C(=O)NC3CCCCC3)C3C=CC2(O3)C1C(=O)NC1CCCC1 (configuration not stated)" obsvalue=87
molecule=COc1cc(-c2nn3c(-c4cccnc4)nnc3s2)cc(OC)c1OC obsvalue=98.5
molecule=Nn1c(SCC(=O)NC2CCCCC2)nnc1C1CC1 obsvalue=111
molecule=CC(=O)Oc1cc(C(C)C)c(OCCN(C)C)cc1C obsvalue=118
molecule=Cc1ccccc1NC(=O)Cc1nnc(SCC(=O)N2CCN(c3ccccc3)CC2)n1C obsvalue=108
molecule="Cc1cccc(C)c1NC(=O)C1CCCCN1C (configuration not stated)" obsvalue=101
molecule=Cc1nnc(SCC(=O)Nc2cc(C(F)(F)F)ccc2N2CCOCC2)o1 obsvalue=99

* * *

- test: reversal of MRP1-mediated doxorubicin resistance, pilot screen, H69AR cells, doxorubicin co-treatment (AID 601)
- recordedConditions: H69AR cells + 2 uM doxorubicin, CellTiter-Glo, 72 h; at 10 µM; stronger effect = higher value
Activity calls are given as the source filed them.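 The calls were made as follows: active = viability loss from added drug above about 55%, and viability with drug at most 40%, in both replicates (limit read from the data, passing the limit was not always enough); inconclusive = both conditions met in only one replicate; inactive = neither replicate meets both conditions.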
quantityMeasured: differential viability (reversal)

molecule=COC(=O)c1ccc2ncccc2c1 quantitymeasured="differential viability (reversal)" obsvalue="7.81% (inactive)"
molecule=CCN(CC)CCNC(=O)c1ccc(N)cc1 quantitymeasured="differential viability (reversal)" obsvalue="-10.7% (inactive)"
molecule=Cc1cccc(C)c1NC(=O)N1CCN(C2CCCCC2)CC1 quantitymeasured="differential viability (reversal)" obsvalue="12.6% (inactive)"
molecule=CCCCC(=O)NCCc1cc2ccc(OC)cc2[nH]c1=O quantitymeasured="differential viability (reversal)" obsvalue="7.54% (inactive)"
molecule="C=CCSC1=C(C#N)C(c2ccccc2)CC(=O)N1 (stereo not drawn)" quantitymeasured="differential viability (reversal)" obsvalue="6.72% (inactive)"
molecule=CCN(CC)C(=O)CSc1nc2ccccc2c(=O)n1CCC(=O)NCc1ccc(F)cc1 quantitymeasured="differential viability (reversal)" obsvalue="3.08% (inactive)"
molecule=CCOC(=O)CNc1ccc2c(c1)OCO2 quantitymeasured="differential viability (reversal)" obsvalue="13.2% (inactive)"
molecule="CCN(CC)CC(C)CNC(=O)CC(C(=O)N1CCc2ccccc21)n1ccnc1 (stereo not drawn)" quantitymeasured="differential viability (reversal)" obsvalue="-7.88% (inactive)"
molecule=O=C(NCc1ccco1)C1CCN(S(=O)(=O)N2CCC3(CC2)OCCO3)CC1 quantitymeasured="differential viability (reversal)" obsvalue="14.2% (inactive)"
molecule=O=C(CSc1nnc(COc2ccc(Cl)cc2)o1)N1CCN(c2ccccc2)CC1 quantitymeasured="differential viability (reversal)" obsvalue="-2.18% (inactive)"
molecule="C=CCn1c(SCC(=O)c2ccc(OC)cc2)nnc1C(C)NC(=O)c1cccs1 (stereo not drawn)" quantitymeasured="differential viability (reversal)" obsvalue="-5.4% (inactive)"
molecule=COc1cccc(-c2cc(C(F)(F)F)n3ncc(C(=O)O)c3n2)c1 quantitymeasured="differential viability (reversal)" obsvalue="9.06% (inactive)"
molecule=COc1ccc2c(CC(=O)Nc3nnc(C4CC4)s3)coc2c1 quantitymeasured="differential viability (reversal)" obsvalue="5.3% (inactive)"
molecule="COc1ccc(C2C(C(=O)c3sc(C)nc3C)=C(O)C(=O)N2CCN(C)C)cc1OC (stereo not drawn)" quantitymeasured="differential viability (reversal)" obsvalue="-8.1% (inactive)"
molecule=CCn1c(=O)c(C(=O)NCCc2ccccc2)c(O)c2ccccc21 quantitymeasured="differential viability (reversal)" obsvalue="-26% (inactive)"
molecule="CC1CCc2cc(F)cc3c(=O)c(C(=O)O)cn1c23 (stereo not drawn)" quantitymeasured="differential viability (reversal)" obsvalue="4.35% (inactive)"
molecule=N#Cc1c(/N=C/c2ccco2)sc2c1CCC2 quantitymeasured="differential viability (reversal)" obsvalue="-1.43% (inactive)"
molecule=NC(=O)NC(=O)CSc1cccc(C(F)(F)F)c1 quantitymeasured="differential viability (reversal)" obsvalue="1.01% (inactive)"
molecule="O=C(CC(C(=O)N1CCc2ccccc21)n1ccnc1)NCc1cccnc1 (stereo not drawn)" quantitymeasured="differential viability (reversal)" obsvalue="-10.9% (inactive)"
molecule=O=C(O)Cc1cc(I)c(Oc2ccc(O)c(I)c2)c(I)c1 quantitymeasured="differential viability (reversal)" obsvalue="-4.12% (inactive)"
molecule=Cc1cc(C)nc(NS(=O)(=O)c2ccc(N)cc2)n1 quantitymeasured="differential viability (reversal)" obsvalue="7.25% (inactive)"
molecule="COc1ccc(S(=O)(=O)C(C#N)c2nc3ccccc3nc2N2CCCC(C)C2)cc1 (stereo not drawn)" quantitymeasured="differential viability (reversal)" obsvalue="-10.6% (inactive)"
molecule=CCCCc1c(O)nc(SCCN(C)C)n(-c2ccccc2)c1=O quantitymeasured="differential viability (reversal)" obsvalue="2.55% (inactive)"
